Listing: normalised growth rate inhibition of selected molecules
tested on: HS578T; assay: normalised growth rate inhibition (GR value) relative to DMSO control (GR (1 = untreated growth, 0 = cytostasis, <0 = cytotoxic)); higher = less growth inhibition; details: 0.37 µM; 72 h
Just the number, please, no unit after it.

# example entries with known answers
OCCCNc1cc(-c2ccnc(Nc3cccc(Cl)c3)n2)ccn1: -0.144
CCn1c(-c2nonc2N)nc2c(C#CC(C)(C)O)ncc(OC[C@H]3CCCNC3)c21: 0.726
O=C1NC(=O)/C(=C/c2ccc3nccc(-c4ccncc4)c3c2)S1: 0.647
C[C@]1(O)C[C@@H](c2nc(-c3ccc4ccc(-c5ccccc5)nc4c3)c3c(N)nccn32)C1: 0.93

Name the reported normalised growth rate inhibition value associated with the molecule "Cc1cc([C@@H](C)Nc2ccccc2C(=O)O)c2nc(N3CCOCC3)cc(=O)n2c1"
0.855

Next entry: "Nc1cc(C(F)(F)F)c(-c2cc(N3CCOCC3)nc(N3CCOCC3)n2)cn1"
0.679

Please do the same for "CN1CC[C@H](c2c(O)cc(O)c3c(=O)cc(-c4ccccc4Cl)oc23)[C@H](O)C1" as well.
-0.206
